Reference source: PubChem BioAssay (NCI)

experiment: NCI Yeast Anticancer Drug Screen. Data for the mlh1 rad18 strain (AID 175); settings: S. cerevisiae mlh1 rad18 strain growth inhibition; at 50.0 µM
This is part of a sample that, as a whole, favours compounds with a hit. Of some 79,000 tested, about 15% had one in any assay. The source made the active and inactive calls. Rule as the data show it: active = growth inhibition above about 70%; inactive = the rest.
Form entry, call: pick from active, inactive

q: Hi, do you know how O=C(O)c1ccc(C(O)(c2ccccc2)c2ccccc2)cc1 came out in this test?
a: active

q: Subsequent entry: C=CCOc1ccc(/C=N/NC(N)=S)cc1
a: inactive

q: What about COC(=O)CCC(C)C1CCC2C3CCC4CC(SC(=N)N)CCC4(C)C3CC(O)C12C (centres undefined) ?
a: active

q: Let us now turn to C=CCOC(=O)C#CCCCC
a: inactive
